From: patent US20050085447A1

Quick record: IC50, MMP-9 full-length (Homo sapiens).

Asked: Find the measured IC50 of O=C(O)c1ccc(Cn2cnc3cnc(C(=O)NCc4ccc(Cl)cc4)cc3c2=O)cc1 and report it.
Given back: > 100 µM

Asked: Find the measured IC50 of O=C(O)c1ccc(Cn2cnc3cnc(C(=O)NCc4cccc(F)c4)cc3c2=O)cc1 and report it.
Given back: > 100 µM

Asked: Find the measured IC50 of O=C(O)c1ccc(Cn2cnc3cnc(C(=O)NCc4ccc(C(F)(F)F)cc4)cc3c2=O)cc1 and report it.
Given back: > 100 µM

Asked: Find the measured IC50 of O=C(O)c1ccc(Cn2cnc3cnc(C(=O)NCc4cccc(C(F)(F)F)c4)cc3c2=O)cc1 and report it.
Given back: > 100 µM

Asked: Find the measured IC50 of COc1cccc(CNC(=O)c2cc3c(=O)n(Cc4ccc(C(=O)O)cc4)cnc3cn2)c1 and report it.
Given back: > 100 µM

# next compound below
Asked: Find the measured IC50 of COc1ccc(CNC(=O)c2cc3c(=O)n(Cc4ccc(C(=O)O)cc4)cnc3cn2)cc1 and report it.
Given back: > 100 µM

---

System Under Test: MMP-3 catalytic domain (Homo sapiens)
Sequence (P08254 100-272 limits assumed): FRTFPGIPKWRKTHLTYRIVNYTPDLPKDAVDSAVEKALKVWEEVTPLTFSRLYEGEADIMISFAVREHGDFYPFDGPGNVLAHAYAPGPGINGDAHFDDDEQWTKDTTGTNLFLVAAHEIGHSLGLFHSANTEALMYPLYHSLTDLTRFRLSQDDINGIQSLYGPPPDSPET
pIC50: −log10 of the molar value.
Endpoint: pIC50

Worked set:
Asked: Find the measured pIC50 of COc1cc(CNC(=O)c2cc3c(=O)n(Cc4ccc(C(=O)O)cc4)cnc3cn2)ccc1O and report it.
Given back: < 4.00

Asked: Find the measured pIC50 of O=C(O)c1ccc(Cn2cnc3cnc(C(=O)NCc4cccnc4)cc3c2=O)cc1 and report it.
Given back: < 4.00

Asked: Find the measured pIC50 of O=C(O)c1ccc(Cn2cnc3cnc(C(=O)NCc4ccccc4)cc3c2=O)cc1 and report it.
Given back: < 4.52

# next compound below
Asked: Find the measured pIC50 of CSc1ccc(CNC(=O)c2cc3c(=O)n(Cc4ccc(C(=O)O)cc4)cnc3cn2)cc1 and report it.
Given back: < 5.00
